- System: cancer cell lines classified IM, MSL, M
- assay summary: PRISM screen compound sensitivity correlated with IM, MSL and M subtype of cell lines (101 gene signature)
- Type: cell-based
- recorded conditions: correlation of PRISM compound sensitivity with M subtype correlation; test cell set (188 cell lines)
// classify: if (M Corr test < -0.01) Satisfied else Not satisfied

Worked cases, answers included:
Cc1cc(-c2cc(O)ccc2Cl)cc2nnc(Nc3ccc(OCCN4CCCC4)cc3)nc12 [TG-100572] = Satisfied
CCN1/C(=C/C(C)=O)Sc2ccc(OC)cc21 [TG-003] = Not satisfied
O=C(O)C1CN(CCCP(=O)(O)O)CCN1 (centres unmarked) [CPP] = Satisfied
COc1ccc(Nc2nccc(NCCO)n2)cc1 [cardiogenol-c] = Satisfied

Moving on to another compound below.
Answer whether the compound CC1(C)[C@@H](O[C@H]2O[C@H](C(=O)O)[C@@H](O)[C@H](O)[C@H]2O[C@@H]2O[C@H](C(=O)O)[C@@H](O)[C@H](O)[C@H]2O)CC[C@]2(C)[C@H]3C(=O)C=C4[C@@H]5C[C@@](C)(C(=O)O)CC[C@]5(C)CC[C@@]4(C)[C@]3(C)CC[C@@H]12 [ammonium-glycyrrhizinate] has M Corr test strictly less than -0.01
Not satisfied

Origin of the recorded values: patent US20250140406A1
